# credit: PubChem BioAssay (NCI)

# System: HL-60(TB) leukemia
# Measurement Description: NCI tumour cell line growth inhibition, 48 h
Measured TGI accompanies every entry in the list below.

Some solved entries appear below for comparison.
1) CC(=O)OCc1cc(CCC(=O)NCCNc2c3ccccc3nc3ccccc23)cc(COC(C)=O)c1O[Si](C)(C)C(C)(C)C	6.2 µM
2) O=C1c2ccccc2C2(Br)C(=O)c3ccccc3C12 (centres undefined)	> 100 µM
3) O=C(Nc1ccc(OS(=O)(=O)c2ccccc2)cc1)C12CC3CC(CC(C3)C1)C2	> 100 µM
4) COc1nc(C(=O)NNC(=O)c2nc(OC)c3ccccc3c2-c2ccccc2)c(-c2ccccc2)c2ccccc12	> 100 µM
5) COc1ccc(C(=O)Sc2c(-c3ccccc3)c(=O)n(-c3ccccc3)c(=S)n2-c2ccccc2)cc1	> 100 µM

Query block: So what TGI did Clc1ccc2c(NCCCNc3nccc(Nc4ccc(Br)cc4)n3)ccnc2c1 get with HL-60(TB) leukemia?
Result block: 4.94 µM

Query block: So what TGI did O=C1CN=C(C[N+](=O)[O-])c2ccccc21 get with HL-60(TB) leukemia?
Result block: > 100 µM

Query block: So what TGI did Cn1cc(C2=C(c3ccc4ccccc4c3)C(=O)NC2=O)c2ccccc21 get with HL-60(TB) leukemia?
Result block: > 25 µM

Query block: So what TGI did C=C(C=O)C1CCC2(C(=O)O)CCC3(C)C(CCC4C5(C)CCC(O)C(C)(C)C5CCC43C)C12 (centres undefined) get with HL-60(TB) leukemia?
Result block: > 100 µM

###

# Tested on: K-562 leukemia
# Measurement Description: NCI tumour cell line growth inhibition, 48 h
Measurement Name: TGI

Some solved entries appear below for comparison.
1. CC1OC2CC(=O)OC2C2=C1C(=O)c1c(O)cccc1C2=O (centres undefined)	> 100 µM
2. S=C(N/N=C/c1ccco1)NC12CC3CC(CC(C3)C1)C2	> 100 µM
3. CC(=O)OCc1cc(CCC(=O)NCCNc2c3ccccc3nc3ccccc23)cc(COC(C)=O)c1O[Si](C)(C)C(C)(C)C	6.49 µM
4. COC(=O)C1=C(c2ccc3c(c2)OCO3)O[C@H](c2cc(OC)c(OC)c(OC)c2)[C@H]1COC(C)=O	> 100 µM
5. CCC1(CC)SCc2nc3ccccc3n21	74.5 µM
6. CCc1nc(N)nc(N)c1-c1ccc2nn(-c3ccccc3)[n+]([O-])c2c1	22.9 µM
7. Cc1ccccc1N1C(=O)/C(=C/c2ccc(N(CCC#N)CCC#N)cc2)N=C1c1cc([N+](=O)[O-])ccc1Cl	> 100 µM
8. CCC(=O)NC(Nc1cccc(F)c1C)(C(F)(F)F)C(F)(F)F	> 100 µM

Field: next molecule
Query block: # query: TGI of entry Cc1cc(C)c(S(=O)(=O)N2CCCN(S(=O)(=O)c3c(C)cc(C)cc3C)OCCCON(S(=O)(=O)c3c(C)cc(C)cc3C)CCCN(S(=O)(=O)c3c(C)cc(C)cc3C)OCCCO2)c(C)c1
Result block: > 100 µM

###

# Test system: M14 melanoma
# Measurement Description: NCI tumour cell line growth inhibition, 48 h
Measured GI50 accompanies every entry in the list below.

1. CC/C(=C(/c1ccc(OCCN(C)C)cc1)c1ccc(OC(=O)CCCCC(=O)c2c(C)[nH]c(/C=C3\N=C(c4ccc[nH]4)C=C3OC)c2C)cc1)c1ccccc1	1.84 µM
2. CCOC(=O)/C=C/C(C(=O)/C=C/c1ccc(OC2CCCCO2)c(OC)c1)=C(O)\C=C\c1ccc(OC2CCCCO2)c(OC)c1 (stereo not drawn)	3.48 µM

Field: next compound
Query block: So what GI50 did O=S(=O)(Nc1cc(F)cc(Cl)c1)c1ccc(-c2cnc(C3CC3)o2)cc1 get with M14 melanoma?
Result block: 0.923 µM
